Experiment: NCI Yeast Anticancer Drug Screen. Data for the rad50EPP+ strain (AID 151);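 also: 0% = growth of vehicle-treated control cultures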
Details: S. cerevisiae rad50 mutant strain, at 1.2 µM, hits give high values
About 79,000 compounds went through this panel and 15% of them were active in at least one assay; those are over-represented in the sample as a whole. The source made the active and inactive calls. Rule as the data show it: active = growth inhibition above about 70%; inactive = the rest.
ASSAY_READOUT: growth inhibition

>>> df
                                   compound  reported_value
0           Cc1cc(O)c2c(c1)C(=O)C=C(Br)C2=O  58% (inactive)
1  COc1cc([C@@H]2c3cc4c(cc3[C@@H](OC3OC5COC(C)OC5C(O)C3O)[C@H]3COC(=O)[C@H]23)OCO4)cc(OC)c1O (some centres not stated)  -9% (inactive)
2               CCCCC(=O)c1c(O)nc2sccn2c1=O   2% (inactive)
3  CC1(C)C(C=O)=CCC1CC(N)=O (configuration not stated)   1% (inactive)
4   COc1cc(/C=C/c2sc3ccccc3[n+]2C)ccc1N(C)C  -1% (inactive)
5     CCNc1ccc2c(c1)C(=O)N(OS(C)(=O)=O)C2=O   7% (inactive)
6          Clc1nc(C(Cl)Cl)nc2sc3c(c12)CCCC3   1% (inactive)
7  Cc1ccc2c(ccc(/C=C/c3ccc(O)c4ncccc34)[n+]2C)c1   3% (inactive)

Noted for `Clc1c(Cl)c(Cl)c2n[nH]nc2c1Cl` : its growth inhibition reads -62% (inactive)

Noted for `COc1cc2c(cc1C[N+](C)(C)CSc1ccccc1)-c1ccccc1CC2` : its growth inhibition reads 3% (inactive)

Noted for `On1cnc(=S)c2[nH]cnc21` : its growth inhibition reads -23% (inactive)

Noted for `CNc1nc(C)nc2c1cnn2-c1ccc([N+](=O)[O-])cc1` : its growth inhibition reads 11% (inactive)
